- Measurement Target: EGFRvIII-Fc fusion antigen (human, UniProt P00533 25-645)
- Method Summary: ELISA on coated EGFRvIII-Fc; TandAb detected with Protein L-HRP, Abs(450nm) [EGFRvIII binding]
Reported Metric: EC50 (read off the curve) (nM)
Respond numerically; units are nM and should not be typed.

What value of EC50 (read off the curve) has been recorded for this entry: TandAb EGFRvIII(ABC479)/CD3, domain order (iv) VH^EGFRvIII-VL^CD3-VH^CD3-VL^EGFRvIII (bispecific antibody, part only; not given: CD3 domain and linkers, part only) tandem diabody polypeptide (homodimer), part: QSGAEVKKPGEVQLVESLKISCKGSGYDFSSYWIGWVRQMPGKGLEWMGIIYPGDSDTIYSPSFQGQVTISADKSISTAYLQWSSLKASDTAMYYCARLGSSWTNDAFDIWGQGTLVTVSSSYELTQPPSVSVSPGQTARITCSGAALPEQYAYWYQQKPGQAPVLVIYKDSERPSGIPERFSGSSSGTTVTLTISGVQAEDEADYYCQSVDSSGTFYVFGGGTKLTVL
0.9
